Ref: patent US20160166636A1

- Measured on: Recombinant bovine HSC70 (Stressgen) (bovine) (UniProt P19120)
- Sequence (P19120 whole entry): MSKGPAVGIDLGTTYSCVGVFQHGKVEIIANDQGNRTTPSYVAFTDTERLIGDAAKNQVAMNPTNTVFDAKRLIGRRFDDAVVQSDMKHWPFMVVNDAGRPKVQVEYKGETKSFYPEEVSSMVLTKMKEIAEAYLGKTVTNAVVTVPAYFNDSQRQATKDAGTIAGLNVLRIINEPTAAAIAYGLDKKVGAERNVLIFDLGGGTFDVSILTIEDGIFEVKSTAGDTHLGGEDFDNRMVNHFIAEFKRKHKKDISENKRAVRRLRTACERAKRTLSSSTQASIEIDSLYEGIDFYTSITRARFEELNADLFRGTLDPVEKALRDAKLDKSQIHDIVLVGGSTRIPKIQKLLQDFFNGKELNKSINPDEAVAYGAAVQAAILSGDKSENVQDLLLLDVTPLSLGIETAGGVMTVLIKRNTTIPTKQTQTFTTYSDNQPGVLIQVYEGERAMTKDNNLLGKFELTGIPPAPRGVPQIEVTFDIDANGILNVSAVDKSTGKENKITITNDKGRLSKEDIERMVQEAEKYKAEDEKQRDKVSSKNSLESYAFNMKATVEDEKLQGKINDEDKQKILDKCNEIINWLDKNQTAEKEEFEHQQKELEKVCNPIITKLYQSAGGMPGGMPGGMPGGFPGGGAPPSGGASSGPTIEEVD
- Protocol: SPR Biacore 3000, HSC70 immobilised, peptide analyte at 1.56 uM, 1:1 Langmuir fit
Square brackets hold non-standard residues; d marks the D form. Ends that are not written are not given here. Met(O) = CS(=O)CC[C@H](N)C(=O)O; pS = N[C@@H](COP(=O)(O)O)C(=O)O
# pKd per entry
Scale: negative log10 of molar concentration, which is what pKd denotes.

>>> assay_value("RIH[Met(O)]VYSKR[pS]GKPRGYAFIEY")
5.72

Next up:
Record RIHMVYSKR[pS]GKPRGYAFIEY [P140 peptide (peptide consisting of SEQ ID NO: 1 in which serine at position 10 is phosphorylated)] , field pKd: 5.16
